- Tested target: T1, dectin-1 (UniProt Q9BXN2-2 66-201)
- T1 construct: also called dec-1
- T1 sequence (looked up): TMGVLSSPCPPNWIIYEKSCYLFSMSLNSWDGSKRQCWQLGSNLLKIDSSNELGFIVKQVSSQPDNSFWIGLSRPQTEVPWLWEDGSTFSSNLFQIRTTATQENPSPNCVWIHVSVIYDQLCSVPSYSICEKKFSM
- Assay comment: ELISA

Binder	binding result
[change]/[change]/[change]/[change] (other) NKTHTCPPCPAPELLGGPSVFLFPPKPKDTLMISRTPEVTCVVVDVSHEDPEVKFNWYVDGVEVHNAKTKPREEQYASTYRVVSVLTVCLQDWLNGKEYKCKVSNKALPAPIEKTISKAKGQPREPQVYTLPPSREEMTKNQVSLTCLVKGFYPSDIAVEWESNGQPENNYKTTPPVLDSDGSFFLYSKLTVDKSRWQQGNVFSCSVMHEALHNHYTQKSLSLSPGKLVLGPPLYAVSLVMSDTAGTAY	no binding
[change]/[change] (other) NKTHTCPPCPAPELLGGPSVFLFPPKPKDTLMISRTPEVTCVVVDVSHEDPEVKFNWYVDGVEVHNAKTKPREEQYNSTYRVVSVLTVCLQDWLNGKEYKCKVSNKALPAPIEKTISKAKGQPREPQVYTLPPSREEMTKNQVSLTCLVKGFYPSDIAVEWESNGQPENNYKTTPPVLDSDGSFFLYSKLTVDKSRWQQGNVFSCSVMHEALHNHYTQKSLSLSPGKLVLGPPLYNVSLVMSDTAGTAY	no binding
[change]/[change] (other) DKTHTCPPCPAPELLGGPSVFLFPPKPKDTLMISRTPEVTCVVVDVSHEDPEVKFNWYVDGVEVHNAKTKPREEQYASTYRVVSVLTVCLQDWLNGKEYKCKVSNKALPAPIEKTISKAKGQPREPQVYTLPPSREEMTKNQVSLTCLVKGFYPSDIAVEWESNGQPENNYKTTPPVLDSDGSFFLYSKLTVDKSRWQQGNVFSCSVMHEALHNHYTQKSLSLSPGKLVLGPPLYNVSLVMSDTAGTAY	no binding
